- MEASURED_ON: Neu5Ac(a2-3)Gal(b1-3)GalNAc(b1-3)Gal(a1-4)Gal(b1-4)Glc
- TEST_NAME: glycan array binding signal (z-score within array); higher = stronger binding
- COND: glycan notation: IUPAC condensed, linker removed
Many of the other results were omitted from the sample, so the strongest signals are more common in it than they were.
This listing pairs binders with measured glycan array binding signal (z-score).

// known answers, use as guide
PfulAvr4 2 (Pseudocercospora fuligena) (protein) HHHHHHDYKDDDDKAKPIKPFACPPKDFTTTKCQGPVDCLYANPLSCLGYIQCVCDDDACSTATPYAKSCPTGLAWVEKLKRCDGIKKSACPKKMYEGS; -0.326
EcCDA (Encephalitazoon cuniculi), Q8SU65 (protein) MLLCLLYFTSSWCSGSDVPDVCTNSGMIAINFVDGPVRGVTDRILNTLDELGVKATFSFTVNQKAVGNVGQLYRRAVEEGHNVALRVDPSMDEGYQCLSQDALENNVDREIDTIDGLSGTEIRYAAVPICNGQVNSEMYNILTERGVLPVGYTFCPYDYDDPVGEFESMIEGSDPKHHSFIILMHDGQEADTSRLENMVKIGKDKGYRFVNMDECLQGYKGAPGDPELSLRGKGVESIGKGFLPFFLMMLVRLL; -0.476
CVNH3T (Magnaporthe grisea) (protein) GSHIGPYGNYAGNFSGSSRDICLDGARLRAECRRGDGGYSTSVIDLNRYLSNDNGHFRWVSGGGGGGGTATVTVQQGDTLRDIGRRFDCDFHEIARRNNIQNEDLIYPGQVLQVPTKGGSGGGAGNFWDSARDVRLVDGGKVLEAELRYSGGWNRSRIYLDEHIGNRNGELIHC; 6.23

query: Identify glycan array binding signal (z-score) associated with the binder Als3-2 (Candida albicans) (protein) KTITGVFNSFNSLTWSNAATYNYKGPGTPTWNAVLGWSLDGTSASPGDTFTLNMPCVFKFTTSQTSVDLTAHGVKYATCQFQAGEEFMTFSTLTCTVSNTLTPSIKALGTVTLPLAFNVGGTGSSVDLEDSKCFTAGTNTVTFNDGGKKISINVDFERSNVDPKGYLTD
result: -0.583

query: Indicate the recorded glycan array binding signal (z-score) value for this binder: Flo1 (Saccharomyces cerevisiae), P32768 (protein) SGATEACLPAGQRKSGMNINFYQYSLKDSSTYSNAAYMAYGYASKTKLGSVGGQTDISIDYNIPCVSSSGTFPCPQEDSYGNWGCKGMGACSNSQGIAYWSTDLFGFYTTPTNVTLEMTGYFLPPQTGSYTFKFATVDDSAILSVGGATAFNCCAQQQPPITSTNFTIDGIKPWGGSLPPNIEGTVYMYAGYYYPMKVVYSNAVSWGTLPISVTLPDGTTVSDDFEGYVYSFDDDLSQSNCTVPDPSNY
result: -0.211

query: For SSA (Sclerotinia sclerotiorum), A7XUK7 (protein) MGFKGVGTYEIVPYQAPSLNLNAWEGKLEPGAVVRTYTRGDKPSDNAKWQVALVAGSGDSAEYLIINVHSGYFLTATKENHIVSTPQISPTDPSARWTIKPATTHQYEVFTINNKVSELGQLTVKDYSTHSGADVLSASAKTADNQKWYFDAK , write its glycan array binding signal (z-score).
result: -0.295
